Attribution: paper PMC8070648

experimentSummary: Biodistribution in AR42J tumor-bearing nude mice
Assay type: in vivo
conditionDetails: female, CD-1 nude, mouse, adrenals, iv, 1 nmol/mouse, total radioactivity, 2 h p.i., i.v. 5 MBq, read-out: Adrenals
Excerpt: Five-week-old female CD-1 nude mice were purchased from Charles River Laboratories (Sulzfeld, Germany).
readout: tissue uptake at 2 h (%ID/g)
Respond with the bare value in %ID/g.

Asked: Supply tissue uptake at 2 h value. Item: C[C@@H](O)[C@@H]1NC(=O)[C@H](CCCCN)NC(=O)[C@@H](Cc2c[nH]c3ccccc23)NC(=O)[C@H](Cc2ccc(O)cc2)NC(=O)[C@@H](NC(=O)[C@@H](Cc2ccccc2)NC(=O)CN2CCN(CC(=O)O)CCN(CC(=O)O)CCN(CC(=O)O)CC2)CSSC[C@@H](C(=O)N[C@H](CO)[C@@H](C)O)NC1=O [[^161Tb]Tb-DOTATOC, metal not drawn]
Given back: 0.25

----------
experimentSummary: Biodistribution in AR42J tumor-bearing nude mice
Type: in vivo
conditionDetails: female, CD-1 nude, mouse, lung, iv, 1 nmol/mouse, total radioactivity, 2 h p.i., i.v. 5 MBq, read-out: Lung
readout: tissue uptake at 2 h (%ID/g)
Respond with the bare value in %ID/g.

Asked: Supply tissue uptake at 2 h value. Item: C[C@@H](O)[C@@H]1NC(=O)[C@H](CCCCN)NC(=O)[C@@H](Cc2c[nH]c3ccccc23)NC(=O)[C@H](Cc2ccc(O)cc2)NC(=O)[C@@H](NC(=O)[C@@H](Cc2ccccc2)NC(=O)CN2CCN(CC(=O)O)CCN(CC(=O)O)CCN(CC(=O)O)CC2)CSSC[C@@H](C(=O)N[C@H](CO)[C@@H](C)O)NC1=O [[^161Tb]Tb-DOTATOC, metal not drawn]
Given back: 0.27

----------
experimentSummary: Biodistribution in AR42J tumor-bearing nude mice
Type: in vivo
conditionDetails: female, CD-1 nude, mouse, kidneys, iv, 1 nmol/mouse, total radioactivity, 24 h p.i., i.v. 5 MBq, read-out: Kidneys
readout: tissue uptake at 24 h (%ID/g)
Respond with the bare value in %ID/g.

Asked: Supply tissue uptake at 24 h value. Item: C[C@@H](O)[C@@H]1NC(=O)[C@H](CCCCN)NC(=O)[C@@H](Cc2c[nH]c3ccccc23)NC(=O)[C@H](Cc2ccc(O)cc2)NC(=O)[C@@H](NC(=O)[C@@H](Cc2ccccc2)NC(=O)CN2CCN(CC(=O)O)CCN(CC(=O)O)CCN(CC(=O)O)CC2)CSSC[C@@H](C(=O)N[C@H](CO)[C@@H](C)O)NC1=O [[^161Tb]Tb-DOTATOC, metal not drawn]
Given back: 5.2

----------
experimentSummary: Biodistribution in AR42J tumor-bearing nude mice
Format: in vivo
conditionDetails: female, CD-1 nude, mouse, liver, iv, 1 nmol/mouse, total radioactivity, 2 h p.i., i.v. 5 MBq, read-out: Liver
readout: tissue uptake at 2 h (%ID/g)
Respond with the bare value in %ID/g.

Asked: Supply tissue uptake at 2 h value. Item: C[C@@H](O)[C@@H]1NC(=O)[C@H](CCCCN)NC(=O)[C@@H](Cc2c[nH]c3ccccc23)NC(=O)[C@H](Cc2ccc(O)cc2)NC(=O)[C@@H](NC(=O)[C@@H](Cc2ccccc2)NC(=O)CN2CCN(CC(=O)O)CCN(CC(=O)O)CCN(CC(=O)O)CC2)CSSC[C@@H](C(=O)N[C@H](CO)[C@@H](C)O)NC1=O [[^161Tb]Tb-DOTATOC, metal not drawn]
Given back: 0.17
